- Tested on: 171881-019-R-J1-PDC tumor spheroid viability;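 note: spheroids exposed to compound for 7 days before viability read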
- Assay explanation: Anticancer human tumor 171881-019-R-J1-PDC patient-derived invasive breast carcinoma cell line growth inhibition [PI3K]; active = viability on the fitted dose curve at most 10% of control; inactive = the rest
- Condition set: second compound 1 µM; first compound 3.16 µM; spheroids with HUVEC and MSC
Labels: active, inactive

{"Compound": "CCCS(=O)(=O)Nc1ccc(F)c(C(=O)c2c[nH]c3ncc(-c4ccc(Cl)cc4)cc23)c1F + CC(Nc1ccc2c(c1)OCCn1cc(N3C(=O)OCC3C(F)F)nc1-2)C(N)=O", "Target under test": "171881-019-R-J1-PDC tumor spheroid viability", "Qualitative label": "inactive"}
{"Compound": "CCCS(=O)(=O)Nc1ccc(F)c(C(=O)c2c[nH]c3ncc(-c4ccc(Cl)cc4)cc23)c1F + Cc1nc(NC(=O)N2CCCC2C(N)=O)sc1-c1ccnc(C(C)(C)C(F)(F)F)c1", "Target under test": "171881-019-R-J1-PDC tumor spheroid viability", "Qualitative label": "inactive"}
{"Compound": "Cn1nccc1Nc1nccc(-c2ccn(C(CO)c3ccc(Cl)c(F)c3)c(=O)c2)n1 (stereo not given) + Cc1nc(NC(=O)N2CCCC2C(N)=O)sc1-c1ccnc(C(C)(C)C(F)(F)F)c1", "Target under test": "171881-019-R-J1-PDC tumor spheroid viability", "Qualitative label": "active"}
{"Compound": "CC(Cn1ccc(-c2ccc(C#N)c(Cl)c2)n1)NC(=O)c1cc(C(C)O)[nH]n1 (stereo not given) + COc1c(OCCCN2CCOCC2)ccc2c3n(c(=NC(=O)c4cnc(N)nc4)nc12)CCN3", "Target under test": "171881-019-R-J1-PDC tumor spheroid viability", "Qualitative label": "active"}
{"Compound": "C#Cc1c(F)ccc2cc(O)cc(-c3ncc4c(N5CC6CCC(C5)N6)nc(OCC56CCCN5CC(F)C6)nc4c3F)c12 (stereo not given) + CC(Nc1ccc2c(c1)OCCn1cc(N3C(=O)OCC3C(F)F)nc1-2)C(N)=O", "Target under test": "171881-019-R-J1-PDC tumor spheroid viability", "Qualitative label": "active"}

Source of measurements: PubChem BioAssay AID1963986
